- Tested on: Escherichia coli
- TEST_SUMMARY: Antibacterial activity against Escherichia coli after 24 hrs by MTT colorimetric method
- Format: functional
Each entry below lists one item and its recorded MIC value.

// below: answered molecules
- Oc1ccc(Cl)cc1/C=N/CC1CCCC(C/N=C/c2cc(Cl)ccc2O)C1 (centres undefined): > 50 µg/mL
- Oc1ccc(Cl)cc1/C=N/Cc1cccnc1: > 50 µg/mL
- Oc1ccc(Cl)cc1/C=N/C1CCN(Cc2ccccc2)CC1: > 50 µg/mL
- NC[C@H]1O[C@H](O[C@H]2[C@H](O)[C@@H](O[C@H]3O[C@H](CO)[C@@H](O)[C@H](N)[C@H]3O)[C@H](N)C[C@@H]2N)[C@H](O)[C@@H](O)[C@@H]1O: 3.9 µg/mL
- Oc1ccc(Cl)cc1/C=N/CCNCC/N=C/c1cc(Cl)ccc1O: > 50 µg/mL

Identify the measured MIC of Oc1ccc(Cl)cc1/C=N/Cc1ccccc1 for Escherichia coli.
3.1 µg/mL

Identify the measured MIC of Oc1ccc(Cl)cc1/C=N/CCCCCC/N=C/c1cc(Cl)ccc1O for Escherichia coli.
> 50 µg/mL
